target: TAOK2 (human) (UniProt Q9UL54); test: KINOMEscan competition binding; conditions: compound 10.0 µM
Sequence (Q9UL54 whole entry, looked up): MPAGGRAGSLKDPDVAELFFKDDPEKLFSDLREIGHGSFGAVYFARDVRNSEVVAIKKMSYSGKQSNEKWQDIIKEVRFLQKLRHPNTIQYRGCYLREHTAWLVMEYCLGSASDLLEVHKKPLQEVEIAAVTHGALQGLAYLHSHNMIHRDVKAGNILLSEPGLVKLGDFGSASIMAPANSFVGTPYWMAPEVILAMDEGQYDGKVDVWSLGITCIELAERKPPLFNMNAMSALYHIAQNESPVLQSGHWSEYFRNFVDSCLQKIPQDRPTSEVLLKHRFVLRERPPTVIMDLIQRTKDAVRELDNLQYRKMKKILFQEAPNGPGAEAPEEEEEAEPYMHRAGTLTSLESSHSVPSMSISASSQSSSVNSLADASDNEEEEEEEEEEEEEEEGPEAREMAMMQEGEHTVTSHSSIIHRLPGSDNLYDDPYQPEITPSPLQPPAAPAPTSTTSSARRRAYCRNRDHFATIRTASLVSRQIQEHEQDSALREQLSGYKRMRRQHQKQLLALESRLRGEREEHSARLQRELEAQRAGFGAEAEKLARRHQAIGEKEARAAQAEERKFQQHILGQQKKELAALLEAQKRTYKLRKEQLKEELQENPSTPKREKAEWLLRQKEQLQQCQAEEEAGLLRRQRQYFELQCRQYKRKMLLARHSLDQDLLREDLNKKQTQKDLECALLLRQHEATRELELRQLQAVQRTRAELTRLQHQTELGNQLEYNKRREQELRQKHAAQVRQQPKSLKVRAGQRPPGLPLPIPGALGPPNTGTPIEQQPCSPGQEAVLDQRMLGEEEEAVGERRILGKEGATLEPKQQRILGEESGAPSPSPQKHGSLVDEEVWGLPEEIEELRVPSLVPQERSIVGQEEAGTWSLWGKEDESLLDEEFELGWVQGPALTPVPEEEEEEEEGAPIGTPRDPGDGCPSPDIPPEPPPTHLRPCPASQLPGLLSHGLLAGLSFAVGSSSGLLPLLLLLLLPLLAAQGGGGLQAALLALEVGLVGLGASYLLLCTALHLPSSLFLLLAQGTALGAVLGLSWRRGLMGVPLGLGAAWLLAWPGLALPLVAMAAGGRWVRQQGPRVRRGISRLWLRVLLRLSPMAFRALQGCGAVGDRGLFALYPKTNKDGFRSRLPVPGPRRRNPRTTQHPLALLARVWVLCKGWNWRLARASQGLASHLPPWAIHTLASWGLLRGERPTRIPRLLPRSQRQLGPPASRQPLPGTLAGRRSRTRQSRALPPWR
Value Kind: kinase still bound, per cent of control (%)

* O=c1cc(N2CCOCC2)oc2c(-c3cccc4c3sc3ccccc34)cccc12 | 98
* C=CC(=O)Nc1cc(-n2c(=O)ccc3cnc4ccc(-c5cn[nH]c5)cc4c32)ccc1C | 76
* O=C1NC(=O)/C(=C/c2ccc3nccc(-c4ccncc4)c3c2)S1 | 50
* COc1ccc(N(C(=O)Oc2c(C)cccc2C)c2ccnc(Nc3ccc(N4CCN(C)CC4)cc3)n2)c(OC)c1 | 2.4
* C[C@@H](Oc1cc(-c2cnn(C3CCNCC3)c2)cnc1N)c1c(Cl)ccc(F)c1Cl | 0.9
* NC(=O)Nc1cc(-c2cccc(F)c2)sc1C(=O)N[C@@H]1CCCNC1 | 35
* COc1cc2ncnc(-n3nc(-c4ccccn4)nc3N)c2cc1OC | 42
* COCC(=O)NC/C=C/c1ccc2ncnc(Nc3ccc(Oc4ccc(C)nc4)c(C)c3)c2c1 | 100
* CN(C)C/C=C/C(=O)Nc1ccc(C(=O)Nc2cccc(Nc3nccc(-c4cccnc4)n3)c2)cc1 | 70
